System tested: Dual specificity protein kinase TTK (Mus musculus) (UniProt P35761)
Sequence (P35761 whole entry, looked up): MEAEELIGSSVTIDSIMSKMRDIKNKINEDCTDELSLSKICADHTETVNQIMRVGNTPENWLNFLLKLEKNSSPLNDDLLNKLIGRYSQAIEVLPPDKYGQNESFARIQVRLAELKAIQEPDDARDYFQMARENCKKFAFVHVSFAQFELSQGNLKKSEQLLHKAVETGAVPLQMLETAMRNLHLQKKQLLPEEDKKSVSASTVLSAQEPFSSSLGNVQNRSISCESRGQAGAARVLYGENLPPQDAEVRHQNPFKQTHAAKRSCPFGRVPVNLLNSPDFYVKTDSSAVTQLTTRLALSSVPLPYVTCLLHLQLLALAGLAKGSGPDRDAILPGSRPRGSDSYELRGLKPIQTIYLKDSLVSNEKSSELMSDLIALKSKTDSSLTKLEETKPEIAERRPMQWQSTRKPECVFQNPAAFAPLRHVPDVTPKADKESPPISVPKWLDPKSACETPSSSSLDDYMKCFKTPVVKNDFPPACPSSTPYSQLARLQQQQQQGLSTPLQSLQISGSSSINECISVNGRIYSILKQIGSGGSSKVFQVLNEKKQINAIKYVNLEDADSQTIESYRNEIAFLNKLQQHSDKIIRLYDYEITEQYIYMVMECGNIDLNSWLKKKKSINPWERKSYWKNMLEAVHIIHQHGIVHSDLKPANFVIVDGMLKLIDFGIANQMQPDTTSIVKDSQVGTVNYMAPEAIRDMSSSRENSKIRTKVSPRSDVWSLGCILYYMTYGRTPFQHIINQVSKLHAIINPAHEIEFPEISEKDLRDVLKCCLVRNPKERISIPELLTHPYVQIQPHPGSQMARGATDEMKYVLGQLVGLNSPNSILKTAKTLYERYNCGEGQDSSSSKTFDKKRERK
Measure: IC50 (nM)
Give bare numbers, in nM.

Lookup: What reported IC50 corresponds to CC(C)CNc1nccn2c(-c3ccc(C(=O)NC4CC4)cc3)cnc12 on Dual specificity protein kinase TTK (Mus musculus) (UniProt P35761)?
Found: 55

The measurements presented in this section are drawn from BindingDB's records for doi:10.1021/acs.jmedchem.3c00963.
